- method.summary: Enzyme screens for resolution of diastereomeric mixture CHLP(MEMC)/THLP(MEMC) (Example 13)
- Format: biochemical
- assay.context: 0.050M each isomer; 0.100M potassium phosphate pH 7.0; 5 h; 5.0 to 50 mg/mL enzyme; 25° C.
- Experimental: An aqueous solution containing 0.050M N-(methoxycarbonyl)-trans-4-hydroxy-L-proline methyl ester and 0.050M N-(methoxycarbonyl)-cis-4-hydroxy-L-proline methyl ester in 0.100M potassium phosphate (pH 7.0) was mixed with 5.0 to 50 mg/mL of commercial enzyme preparations (listed in the table below) at 25° C. The reactions were analyzed after 5 h by removal of a 0.200 mL sample and mixing with an equivalent volume of 0.100M propionic acid (HPLC internal standard) in water. […]
reported.metric: conv. (percent conversion of the diastereomeric mixture) (%)

{"molecule": "protease, type X: commercial enzyme preparation, source B. thermoproteoliticus rokko (protein, UniProt P00800 233-548, looked up) Thermolysin: ITGTSTVGVGRGVLGDQKNINTTYSTYYYLQDNTRGNGIFTYDAKYRTTLPGSLWADADNQFFASYDAPAVDAHYYAGVTYDYYKNVHNRLSYDGNNAAIRSSVHYSQGYNNAFWNGSQMVYGDGDGQTFIPLSGGIDVVAHELTHAVTDYTAGLIYQNESGAINEAISDIFGTLVEFYANKNPDWEIGEDVYTPGISGDSLRSMSDPAKYGDPDHYSKRYTGTQDNGGVHINSGIINKAAYLISQGGTHYGVSVVGIGRDKLGKIFYRALTQYLTPTSNFSQLRAAAVQSATDLYGSTSQEVASVKQAFDAVGVK", "unit.abbrev": "%", "result.number": 0}
{"molecule": "protease, trypsin bovine pancreas: commercial trypsin, source bovine pancreas (protein, UniProt P00760 24-246, looked up) Serine protease 1: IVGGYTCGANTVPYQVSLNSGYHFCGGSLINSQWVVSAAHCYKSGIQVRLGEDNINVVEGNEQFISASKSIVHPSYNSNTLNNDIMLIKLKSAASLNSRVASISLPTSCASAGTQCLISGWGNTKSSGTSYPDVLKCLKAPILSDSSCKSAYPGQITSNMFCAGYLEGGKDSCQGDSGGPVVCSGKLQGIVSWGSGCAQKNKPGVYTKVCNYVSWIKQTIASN", "unit.abbrev": "%", "result.number": 0}
{"molecule": "protease, type VIII: commercial enzyme preparation, source Bacillus licheniformis (protein, UniProt P00780 106-379, looked up) Subtilisin Carlsberg: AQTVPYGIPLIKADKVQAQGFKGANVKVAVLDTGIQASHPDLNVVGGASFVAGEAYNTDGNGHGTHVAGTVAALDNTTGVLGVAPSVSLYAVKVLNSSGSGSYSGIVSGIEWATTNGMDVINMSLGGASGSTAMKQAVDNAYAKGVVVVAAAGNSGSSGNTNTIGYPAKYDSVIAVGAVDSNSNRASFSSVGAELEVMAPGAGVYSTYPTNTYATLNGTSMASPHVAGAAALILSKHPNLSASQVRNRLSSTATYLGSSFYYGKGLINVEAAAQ", "unit.abbrev": "%", "result.number": 4}
{"molecule": "protease, trypsin porcine pancreas: commercial trypsin, source porcine pancreas (protein, UniProt P00761 9-231, looked up) Trypsin: IVGGYTCAANSIPYQVSLNSGSHFCGGSLINSQWVVSAAHCYKSRIQVRLGEHNIDVLEGNEQFINAAKIITHPNFNGNTLDNDIMLIKLSSPATLNSRVATVSLPRSCAAAGTECLISGWGNTKSSGSSYPSLLQCLKAPVLSDSSCKSSYPGQITGNMICVGFLEGGKDSCQGDSGGPVVCNGQLQGIVSWGYGCAQKNKPGVYTKVCNYVNWIQQTIAAN", "unit.abbrev": "%", "result.number": 0}
{"molecule": "protease (Chirazyme P1): commercial enzyme preparation, source Bacillus licheniformis (protein, UniProt P00780 106-379, looked up) Subtilisin Carlsberg: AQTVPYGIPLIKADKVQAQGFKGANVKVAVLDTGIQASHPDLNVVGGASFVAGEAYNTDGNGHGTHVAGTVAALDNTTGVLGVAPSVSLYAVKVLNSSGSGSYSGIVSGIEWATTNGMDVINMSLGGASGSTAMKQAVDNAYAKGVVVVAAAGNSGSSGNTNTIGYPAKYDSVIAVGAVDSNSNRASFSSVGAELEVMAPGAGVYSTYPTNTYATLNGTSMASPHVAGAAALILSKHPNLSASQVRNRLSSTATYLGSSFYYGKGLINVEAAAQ", "unit.abbrev": "%", "result.number": 25}
